All values here come from paper PMC3695523.

- Target entity: the molecule itself
- Procedure details: AUC; sedimentation velocity, 20°C, 42 000 rpm, 0.3125, 0.0625, 0.125, 0.250, 0.5 or 1 mg/ml protein
Readout label: stoichiometry N
No unit in the answer, please; the number alone is enough.

- Protein: "Qri7 (residues 30-407), wild type, as used for analytical ultracentrifugation (enzyme, yeast (Saccharomyces cerevisiae), UniProt P43122 30-407, looked up, Qri7, S. cerevisiae, amino acids 30-407; also called wild-type Qri7; source: E. coli BL21 (DE3) CodonPlus, purified (Ni-NTA or glutathione sepharose, SEC)) RKGYKVLAIETSCDDTCVSVLDRFSKSAAPNVLANLKDTLDSIDEGGIIPTKAHIHHQARIGPLTERALIESNAREGIDLICVTRGPGMPGSLSGGLDFAKGLAVAWNKPLIGVHHMLGHLLIPRMGTNGKVPQFPFVSLLVSGGHTTFVLSRAIDDHEILCDTIDIAVGDSLDKCGRELGFKGTMIAREMEKFINQDINDQDFALKLEMPSPLKNSASKRNMLSFSFSAFITALRTNLTKLGKTEIQELPEREIRSIAYQVQESVFDHIINKLKHVLKSQPEKFKNVREFVCSGGVSSNQRLRTKLETELGTLNSTSFFNFYYPPMDLCSDNSIMIGWAGIEIWESLRLVSDLDICPIRQWPLNDLLSVDGWRTDQL"
  stoichiometry N: 2

Exam item: # stoichiometry N lookup, item Qri7 (30-407) D44A (enzyme, yeast (Saccharomyces cerevisiae), UniProt P43122 30-407, looked up, Qri7, S. cerevisiae, amino acids 30-407, catalytic cleft mutant; source: E. coli BL21 (DE3) CodonPlus, purified (Ni-NTA or glutathione sepharose, SEC)) RKGYKVLAIETSCDATCVSVLDRFSKSAAPNVLANLKDTLDSIDEGGIIPTKAHIHHQARIGPLTERALIESNAREGIDLICVTRGPGMPGSLSGGLDFAKGLAVAWNKPLIGVHHMLGHLLIPRMGTNGKVPQFPFVSLLVSGGHTTFVLSRAIDDHEILCDTIDIAVGDSLDKCGRELGFKGTMIAREMEKFINQDINDQDFALKLEMPSPLKNSASKRNMLSFSFSAFITALRTNLTKLGKTEIQELPEREIRSIAYQVQESVFDHIINKLKHVLKSQPEKFKNVREFVCSGGVSSNQRLRTKLETELGTLNSTSFFNFYYPPMDLCSDNSIMIGWAGIEIWESLRLVSDLDICPIRQWPLNDLLSVDGWRTDQL
Marked response: 2
